Hello, the source for this data is patent US11464749B2, in case you need it.

I'd appreciate it if you could supply MIC values for the items below.
Tested on: Acinetobacter baumannii
Assay: Broth microdilution MIC (Example 11)
Settings: Acinetobacter baumannii, A. baumannii MMX 2592; MDR, Lev^R, Cip^R, MEM^R, CAZ^R, Gm^R
Answers are plain numbers, in µg/mL.

molecule="C[C@H]1COc2c(N3CCN(C)CC3)c(F)cc3c(=O)c(C(=O)O)cn1c23 [Levofloxacin, reference compound]" measured_on="Acinetobacter baumannii" quantitative_readout=64
molecule=CC(C)(O/N=C(\C(=O)N[C@@H]1C(=O)N2C(C(=O)[O-])=C(C[n+]3ccccc3)CS[C@H]12)c1csc(N)n1)C(=O)O measured_on="Acinetobacter baumannii" quantitative_readout=32
molecule="C[C@@H](O)[C@H]1C(=O)N2C(C(=O)O)=C(S[C@@H]3CN[C@H](C(=O)N(C)C)C3)[C@H](C)[C@H]12 [Meropenem, reference compound]" measured_on="Acinetobacter baumannii" quantitative_readout=64

Okay, now this molecule:
Documented MIC of CC(S)C(C)S.[Bi] (stereo not shown) : 0.5
